Target: human α-synuclein aggregates (Homo sapiens)
Construct: made in house; host or cells: E. coli BL21 (DE3)
Test: Fluorescence saturation binding of compounds to α-synuclein aggregates
pKd: −log10 of the molar value.

smilesString	pKd
CN1CCN(c2ccc3oc(-c4ccc(N(C)C)nc4)nc3c2)C(=O)C1	6.70 to 7.00

# credit: patent US20250049966A1
